SYSTEM: RET (Homo sapiens)
Sequence (P07949 29-1114): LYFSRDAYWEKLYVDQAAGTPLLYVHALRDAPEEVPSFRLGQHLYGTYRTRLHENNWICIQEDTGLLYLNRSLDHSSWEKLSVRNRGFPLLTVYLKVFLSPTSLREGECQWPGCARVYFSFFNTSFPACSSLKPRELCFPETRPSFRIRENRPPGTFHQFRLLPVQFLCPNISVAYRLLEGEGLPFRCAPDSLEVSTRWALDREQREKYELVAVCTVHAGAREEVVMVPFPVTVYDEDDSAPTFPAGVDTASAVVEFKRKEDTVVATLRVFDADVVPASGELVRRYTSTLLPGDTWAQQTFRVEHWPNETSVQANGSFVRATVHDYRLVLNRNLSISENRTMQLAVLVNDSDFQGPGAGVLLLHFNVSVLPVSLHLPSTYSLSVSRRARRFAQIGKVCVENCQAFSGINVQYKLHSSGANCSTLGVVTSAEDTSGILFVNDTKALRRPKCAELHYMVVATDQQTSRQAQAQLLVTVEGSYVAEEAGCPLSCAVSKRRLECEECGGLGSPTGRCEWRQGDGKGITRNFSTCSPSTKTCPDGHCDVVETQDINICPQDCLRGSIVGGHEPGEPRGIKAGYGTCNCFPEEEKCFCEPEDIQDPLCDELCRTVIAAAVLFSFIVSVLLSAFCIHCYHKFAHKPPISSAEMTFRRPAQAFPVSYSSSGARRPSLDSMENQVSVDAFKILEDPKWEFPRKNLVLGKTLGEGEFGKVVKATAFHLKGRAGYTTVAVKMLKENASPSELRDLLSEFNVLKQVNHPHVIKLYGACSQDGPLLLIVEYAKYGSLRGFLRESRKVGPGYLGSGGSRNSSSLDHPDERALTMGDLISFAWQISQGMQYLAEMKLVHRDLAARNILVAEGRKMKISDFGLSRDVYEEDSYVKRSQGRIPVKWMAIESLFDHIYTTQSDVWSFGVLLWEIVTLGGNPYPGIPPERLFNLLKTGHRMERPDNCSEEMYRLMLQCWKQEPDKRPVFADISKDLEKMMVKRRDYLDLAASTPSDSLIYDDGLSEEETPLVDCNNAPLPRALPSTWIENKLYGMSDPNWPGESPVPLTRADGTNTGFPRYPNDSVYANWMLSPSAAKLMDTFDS
MEASUREMENT PROTOCOL: ELISA kinase assay, RET
Type: biochemical
SETUP CONDITIONS: read-out: RET inhibition @100 nmol/L
ENDPOINT: inhibition at 0.1 µM (%)

Record excerpt, results attached:
- COMPOUND: "Cc1ccc(C(=O)Nc2cccc(C(F)(F)F)c2)cc1-c1ccc2nc(Nc3cnn(C)c3)ncc2c1 [Compound 22]"
  inhibition at 0.1 µM, %: 97.2
- COMPOUND: "CC(C)c1ccc(C(=O)Nc2cccc(C(F)(F)F)c2)cc1-c1ccc2nc(Nc3cnn(C)c3)ncc2c1 [Compound 34]"
  inhibition at 0.1 µM, %: 54.5
- COMPOUND: "Cn1cc(Nc2ncc3cc(-c4cc(C(=O)Nc5cccc(C(F)(F)F)c5)ccc4C4CC4)ccc3n2)cn1 [Compound 35]"
  inhibition at 0.1 µM, %: 50.7

P. COc1ccc(C(=O)Nc2cccc(C(F)(F)F)c2)cc1-c1ccc2nc(Nc3cnn(C)c3)ncc2c1 [Compound 33]
Q. CCc1ccc(C(=O)Nc2cccc(C(F)(F)F)c2)cc1-c1ccc2nc(Nc3cnn(C)c3)ncc2c1 [Compound 32]
Returns: the label, P or Q , whose recorded inhibition at 0.1 µM is the lower number. Choose, then provide that item's label.
P
(P: 41.3%, Q: 77.1%)
